Tested on: PPARa:RXRa (NR concentration 270 nM, RXRa partner concentration 90 nM)
Assay: PBM binding z-score (relative to random genomic background probes); higher = stronger binding; sequences stand for … in GC…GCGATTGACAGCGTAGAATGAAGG
Listed here: items and their measured PBM binding z-score.
ENDPOINT: PBM binding z-score

RESIDUES	ENDPOINT	ASSAY RESULT
ACAGACAGGTGTGTGAAGGTAACTCAGCTGGACG	PBM binding z-score	-0.347
CCGACTGGGGCAAAGGTTATCATACTCAGTACGA	PBM binding z-score	5.54
AGCTCTAGGTAAAGATAGTTCAGTGAATGCAAAT	PBM binding z-score	0.354
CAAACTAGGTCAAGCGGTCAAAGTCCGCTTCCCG	PBM binding z-score	5.57
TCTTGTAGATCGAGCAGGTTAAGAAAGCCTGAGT	PBM binding z-score	0.628
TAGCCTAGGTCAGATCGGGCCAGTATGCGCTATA	PBM binding z-score	1.73
CGAACTAGGTCAAGGACCGTGAATCTCCGCACGC	PBM binding z-score	4.64
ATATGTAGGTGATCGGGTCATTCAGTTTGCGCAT	PBM binding z-score	4.72
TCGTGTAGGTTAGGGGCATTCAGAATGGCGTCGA	PBM binding z-score	1.6
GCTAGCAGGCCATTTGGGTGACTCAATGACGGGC	PBM binding z-score	0.031
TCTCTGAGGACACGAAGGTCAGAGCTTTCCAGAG	PBM binding z-score	2
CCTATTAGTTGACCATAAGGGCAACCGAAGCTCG	PBM binding z-score	0.977

---

Tested on: LXRa:RXRa (NR concentration 270 nM, RXRa partner concentration 90 nM)
Experiment: PBM binding z-score (relative to random genomic background probes); higher = stronger binding; sequences stand for … in GC…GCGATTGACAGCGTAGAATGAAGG
Decision: PBM binding z-score compared against 0.7; not below it gives T, below it gives F.

RESIDUES	CAT
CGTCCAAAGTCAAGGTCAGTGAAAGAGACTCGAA	T
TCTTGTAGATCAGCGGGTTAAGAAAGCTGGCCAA	F
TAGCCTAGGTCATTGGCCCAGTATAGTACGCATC	T
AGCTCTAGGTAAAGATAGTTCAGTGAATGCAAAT	T
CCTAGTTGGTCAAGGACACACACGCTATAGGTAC	F
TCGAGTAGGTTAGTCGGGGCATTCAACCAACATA	F
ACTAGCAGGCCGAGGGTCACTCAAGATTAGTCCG	T
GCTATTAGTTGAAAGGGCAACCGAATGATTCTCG	T
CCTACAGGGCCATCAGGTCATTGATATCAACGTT	T
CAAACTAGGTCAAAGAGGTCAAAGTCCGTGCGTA	T
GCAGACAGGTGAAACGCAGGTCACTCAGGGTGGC	T

---

Test system: THRa:RXRa (NR concentration 90 nM, RXRa partner concentration 90 nM)
Assay: PBM binding z-score (relative to random genomic background probes); higher = stronger binding; sequences stand for … in GC…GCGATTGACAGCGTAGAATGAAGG
Rule: PBM binding z-score under 2 gives no (0), otherwise yes (1).

RESIDUES	CAT
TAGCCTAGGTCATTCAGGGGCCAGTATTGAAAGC	yes (1)
CCGAGTAGGTTATGGGGCATTCAAGCAACGGTGA	no (0)
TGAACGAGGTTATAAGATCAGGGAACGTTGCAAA	no (0)
CCTGCTAGGGCATGGTCAGCTAATCTACAGTATG	no (0)
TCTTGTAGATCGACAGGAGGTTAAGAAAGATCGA	no (0)
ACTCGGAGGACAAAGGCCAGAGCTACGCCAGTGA	no (0)
CGTCAAGGTTCAAGGTAACGTAACAGAAAGCAGC	yes (1)
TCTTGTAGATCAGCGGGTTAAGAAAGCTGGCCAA	no (0)
TCTTGTAGATCAGCAGGTTAGGAAAGCTGGCCAA	no (0)
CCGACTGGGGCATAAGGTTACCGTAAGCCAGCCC	yes (1)
GATACAGGGTCAAGGCCAGTGTACGCGTATTGAT	yes (1)
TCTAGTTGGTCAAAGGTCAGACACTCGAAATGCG	yes (1)
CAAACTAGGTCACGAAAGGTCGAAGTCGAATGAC	yes (1)
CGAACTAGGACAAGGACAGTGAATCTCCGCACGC	no (0)
GCTCGGAGGACAAGGTCAGAGGTTTGTCCGTAGA	yes (1)
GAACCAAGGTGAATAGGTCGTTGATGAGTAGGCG	no (0)
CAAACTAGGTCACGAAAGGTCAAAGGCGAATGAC	yes (1)
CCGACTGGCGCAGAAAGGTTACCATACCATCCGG	no (0)
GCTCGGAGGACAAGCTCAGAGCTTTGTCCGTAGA	no (0)
CGTGCAAGGTCATAGGAGGTCAGTGAAGACAGAT	yes (1)
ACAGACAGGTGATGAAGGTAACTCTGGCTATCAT	no (0)
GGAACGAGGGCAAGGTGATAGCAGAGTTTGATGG	no (0)
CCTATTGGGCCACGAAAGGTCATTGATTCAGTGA	yes (1)
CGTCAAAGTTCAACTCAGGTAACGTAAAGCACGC	yes (1)
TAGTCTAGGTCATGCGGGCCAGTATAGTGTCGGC	yes (1)
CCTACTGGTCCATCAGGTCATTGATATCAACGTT	yes (1)
ACCGAAAGGTCGTGAGGTGAGTATACAGAAAGGC	yes (1)
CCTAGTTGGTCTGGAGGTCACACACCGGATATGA	yes (1)
CCAGACAGGTGAAAGGTATCTCAGTCTGGTACGC	no (0)
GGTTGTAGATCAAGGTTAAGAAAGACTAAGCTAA	no (0)
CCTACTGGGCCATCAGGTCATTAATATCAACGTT	yes (1)
CCTTACGGGTCAAGGTTCTAGCACGGGTGGTACG	yes (1)
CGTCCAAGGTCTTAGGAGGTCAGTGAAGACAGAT	yes (1)
CCTGCTAGCTCATGGTCAGCTAATCTACAGTATG	no (0)
TCTCGGAGGACACGACAGGTCAGAGCTCGACATC	yes (1)
GCGACTGAGGCATCAGCAGGTTACCATAACTTAA	no (0)
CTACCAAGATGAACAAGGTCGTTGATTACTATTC	no (0)
CCTTACGGGTCAAGGTTATTGCACGGGTGGTACG	yes (1)
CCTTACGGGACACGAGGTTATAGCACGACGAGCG	no (0)
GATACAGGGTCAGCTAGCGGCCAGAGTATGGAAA	yes (1)
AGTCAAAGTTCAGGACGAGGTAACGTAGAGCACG	yes (1)
CCTAGCAGGCCAATCTGGGTCCCTCAAGGCTTGA	no (0)
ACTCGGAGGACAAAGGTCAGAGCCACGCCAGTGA	yes (1)
TCTAGTTAGTCACGGAGGTCACACACGACGGGTA	yes (1)
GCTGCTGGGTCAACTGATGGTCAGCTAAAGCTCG	yes (1)
GCTGCTAGCTCAACTGATGGTCAGCTAAAGCTCG	no (0)
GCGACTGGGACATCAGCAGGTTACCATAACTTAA	no (0)
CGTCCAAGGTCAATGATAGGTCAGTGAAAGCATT	yes (1)
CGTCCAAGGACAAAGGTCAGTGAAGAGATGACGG	yes (1)
